System: Helicobacter pylori No. 3
experiment.summary: MIC, agar plating dilution, clinical segregation strain
Assay type: cell-based
condition.notes: Strain 6: Helicobacter pylori No. 3
recorded.metric: MIC (µg/mL)

>>> measured_value("CC(C)(C)c1ccc(COC(=O)c2ccc(-c3ccc(OC(=O)[C@H]4CC[C@H](CNC(=N)N)CC4)cc3)cc2)cc1.Cl [Example 17]")
0.20
>>> measured_value("Cl.N=C(N)NC[C@H]1CC[C@H](C(=O)Oc2ccc(-c3ccc(C(=O)OCc4ccc(C(F)(F)F)cc4)cc3)cc2)CC1 [Example 21]")
0.10
>>> measured_value("Cl.N=C(N)NC[C@H]1CC[C@H](C(=O)Oc2ccc(-c3ccc(C(=O)OCCc4ccc(Cl)cc4)cc3)cc2)CC1 [Example 45]")
0.39
